Value source: the supplement of paper PMC10567573

Reported protein stability index is given for each of the following variants.
B1: ZBED3 (parent)
chain: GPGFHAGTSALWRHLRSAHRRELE

Variants of: B1
test.description: protein stability index of a GFP-peptide fusion (GPS, HEK-293T) (PSI 1-6); higher = more stable;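 further: lentivirally expressed fusions sorted by FACS into six bins by GFP to DsRed ratio, PSI derived from sequencing read proportions per bin multiplied by bin number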
condition.summary: c terminus: a fixed tail appended
Give the figure by itself; no unit, no explanation.

mutation_descriptor=L15F recorded_result=2.16
mutation_descriptor=R16F recorded_result=2.07
mutation_descriptor=G7R recorded_result=2
mutation_descriptor=E24L recorded_result=2
mutation_descriptor=A18S recorded_result=1.88
mutation_descriptor=A10C recorded_result=2.32
mutation_descriptor=P2I recorded_result=2.8
mutation_descriptor=R21A recorded_result=1.7
mutation_descriptor=H14F recorded_result=1.68
mutation_descriptor=W12V recorded_result=2.44

Please look at the following variant next.
Per the record, H5E has protein stability index of 3.63
